System: T24 human bladder carcinoma cells
Experiment: Cytotoxicity assay, sulforhodamine B binding
Conditions: T-24, 48 h, read-out: Cytotoxicity IC50
The following compounds are listed with their measured IC50 values.
quantityKind: IC50

CC1C2CCCN2CCN1Cc1cccc(Oc2ccc(Cl)cc2)c1 (centres unmarked) | 1500 nM
c1ccc2cc(N3CCN4CCCC4C3C3CCCCC3)ccc2c1 (centres unmarked) | 1300 nM
COc1ccc(CN2CCN3CCCC3C2C2CCCCC2)cc1 (centres unmarked) | 8100 nM
C1CCC(C2C3CCCN3CCN2C2CCCCC2)CC1 (centres unmarked) | 1600 nM
CCn1c2ccccc2c2cc(CN3CCN4CCCC4C3C3CCCCC3)ccc21 (centres unmarked) | 1800 nM

====

System: DU145
Assay: Antiproliferative activity toward human tumor cell lines
Type: cell-based
Conditions: DU-145, DU145, Prostate, mean ± SEM of 4 experiments
pIC50: −log10 of the molar value.
quantityKind: pIC50

CCn1c2ccccc2c2cc(CN3CCN4CCCC4C3C3CCCCC3)ccc21 (stereo not shown) [Compound 537] | 4.83

====

The following molecules are listed with their measured IC50 values.
Target: recombinant human NMT (Homo sapiens, UniProt P30419)
Sequence (P30419 whole entry): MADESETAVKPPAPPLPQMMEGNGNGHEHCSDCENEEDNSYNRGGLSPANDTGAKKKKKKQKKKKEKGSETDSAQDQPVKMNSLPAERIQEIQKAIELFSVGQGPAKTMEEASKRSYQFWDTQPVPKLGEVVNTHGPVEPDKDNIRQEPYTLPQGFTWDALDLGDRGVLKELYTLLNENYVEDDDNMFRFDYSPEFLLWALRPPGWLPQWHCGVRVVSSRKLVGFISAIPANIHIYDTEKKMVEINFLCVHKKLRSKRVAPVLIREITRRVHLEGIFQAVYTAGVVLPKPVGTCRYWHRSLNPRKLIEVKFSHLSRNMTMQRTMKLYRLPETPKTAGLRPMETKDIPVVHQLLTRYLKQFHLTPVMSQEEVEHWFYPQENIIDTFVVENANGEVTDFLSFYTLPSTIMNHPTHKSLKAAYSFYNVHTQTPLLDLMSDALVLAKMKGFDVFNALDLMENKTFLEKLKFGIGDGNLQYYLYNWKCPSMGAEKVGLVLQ
Assay: NMT screening assay with purified recombinant GST-NMT-1, [3H]-myristoyl-CoA and biotinylated peptide
quantityKind: IC50 (µM)

c1ccc2cc(N3CCN4CCCC4C3C3CCCCC3)ccc2c1 (centres unmarked) | 42
CC1C2CCCN2CCN1Cc1c2ccccc2c(Cl)c2ccccc12 (centres unmarked) | 47
c1cc2ccc3ccc(CN4CCN5CCCC5C4C4CCCCC4)c4ccc(c1)c2c34 (centres unmarked) | 70
COc1ccc(CN2CCN3CCCC3C2C2CCCCC2)c2ccccc12 (centres unmarked) | 35
CC1C2CCCN2CCN1Cc1cccc(Oc2ccc(Cl)cc2)c1 (centres unmarked) | 40
C1CCC(C2C3CCCN3CCN2C2CCCCC2)CC1 (centres unmarked) | 113
CCn1c2ccccc2c2cc(CN3CCN4CCCC4C3C3CCCCC3)ccc21 (centres unmarked) | 6

====

Test system: SKOV3
Assay: Antiproliferative activity toward human tumor cell lines
Type: cell-based
Conditions: SK-OV-3, SKOV3, Ovary, mean ± SEM of 4 experiments
pIC50: −log10 of the molar value.
quantityKind: pIC50

CCn1c2ccccc2c2cc(CN3CCN4CCCC4C3C3CCCCC3)ccc21 (stereo not shown) [Compound 537] | 4.88

====

System: A-498
Test: Antiproliferative activity toward human tumor cell lines
Format: cell-based
Conditions: A498, A-498, Kidney, mean ± SEM of 4 experiments
pIC50: −log10 of the molar value.
quantityKind: pIC50

CCn1c2ccccc2c2cc(CN3CCN4CCCC4C3C3CCCCC3)ccc21 (stereo not shown) [Compound 537] | 5.24

====

The following compounds are listed with their measured IC50 values.
System: T24 human bladder carcinoma cells
Test: Cytotoxicity assay, sulforhodamine B binding
Conditions: T-24, 48 h, read-out: Cytotoxicity IC50
quantityKind: IC50 (nM)

CC1C2CCCN2CCN1Cc1c2ccccc2c(Cl)c2ccccc12 (stereo not drawn) | 4200
COc1ccccc1/C=C/CN1CCN2CCCC2C1C1CCCCC1 (stereo not drawn) | 2800
COc1ccc2ccccc2c1CN1CCN2CCCC2C1C1CCCCC1 (stereo not drawn) | 1500
